Just for reference, the array DNA melting data of Ke et al. (doi:10.1101/2024.01.08.574731) is where these values come from.

assay: folding enthalpy; higher = less favourable; fluorescence melt of hairpins on a sequencing array, two-state fit
condition-notes: sodium 0.088 M
quantity-name: folding enthalpy (kcal/mol)

sequence-input	unit-abbreviation	data-value
GCAATCGAAAGATGTGC ((((((....))).)))	kcal/mol	-25.5
GTGGACGGAAACGTCTAC ((.((((....)))).))	kcal/mol	-24.9
GGACTCGAAAGAGCTCC ((((((....))).)))	kcal/mol	-26
GATCCAACACTGGATC ((((((....))))))	kcal/mol	-43
GCCCTGCGAAAGCATGGC (((.(((....))).)))	kcal/mol	-48.3
GCGTCCGAAAGGACCCGC ((((((....)))..)))	kcal/mol	-11.4
GATCGCAGGTGCGATC ((((((....))))))	kcal/mol	-39.8
CGTTGGCGGAAACGCACG (((..(((....))))))	kcal/mol	-14.6
GCCCGTGGAAACGTGGGC ((((..(....)..))))	kcal/mol	-31.2
GTTTGTGGAAACATAAAC ((((.((....)).))))	kcal/mol	-22.8
GATCGCTTCGGCGATC ((((((....))))))	kcal/mol	-35.6
GCGTAACCACGC ((((....))))	kcal/mol	-23.3
GGAGATCGAAAGATGTCC (((.(((....))).)))	kcal/mol	-29.5
GATCTCCATTGAGATC ((((((....))))))	kcal/mol	-33.7
GATCCCTCTGGGGATC ((((((....))))))	kcal/mol	-39.1
GCCGACGAAAGTCTAGGC ((((((....)))..)))	kcal/mol	-34.1
GAAAGCGGAAACGCTTCC (.(((((....))))).)	kcal/mol	-12.3
GTGCGCCGAAAGGCCAC (((.(((....))))))	kcal/mol	-21.3
GATCTAAGACTAGATC ((((((....))))))	kcal/mol	-19.9
GATCTCCTTTGAGATC ((((((....))))))	kcal/mol	-39.6
GATCGTCACCACGATC ((((((....))))))	kcal/mol	-40.9
GGAGACGAAAGTCACTCC ((((((....)))..)))	kcal/mol	-13.3
GTTTATGCGAAAGCAAAC (((..(((....))))))	kcal/mol	-8.45
GCGATGTGTCGC ((((....))))	kcal/mol	-28.6
GCCAGTGGAAACACTGAC (.(((((....))))).)	kcal/mol	-15.8
GCGCCGGGAAACCAGCGC ((((.((....)).))))	kcal/mol	-44.5
GCCTTGCGAAAGCTGGGC (((..((....))..)))	kcal/mol	-25.9
GTGTGTGGAAACACGTAC ((..(((....)))..))	kcal/mol	-11.8
GCTATGCGAAAGCTCAGC (((..((....))..)))	kcal/mol	-19.1
GCATCGCGAAAGCTGTGC (((..((....))..)))	kcal/mol	-21.1
GATCGGGTCTCCGATC ((((((....))))))	kcal/mol	-41.2
GATGCCGAAAGGCAGATC ((((((....)))..)))	kcal/mol	-15.6
GCAGCGCGAAAGCTCAGC ((.(.((....)).).))	kcal/mol	-10.6
ATTCGGAAACGAAT (((((....)))))	kcal/mol	-18.4
